- Test system: Staphylococcus aureus
- Assay summary: Inhibition of Staphylococcus aureus DNA gyrase ATPase subunit GyrA2/GyrB2 after 60 mins by malachite green staining assay
In this section we review reported inhibitory concentration values for a set of compounds.
Numeric answer only, unit µg/mL assumed.

# input So what's the measured inhibitory concentration for this one? CCNC(=O)Nc1nc2cc(-c3cnc(C(C)(O)CO)nc3)cc(-c3ccccn3)c2s1 (racemic)
# output 0.006

====

- System: Haemophilus influenzae
- Assay summary: Antibacterial activity against Haemophilus influenzae 49247 assessed as growth inhibition
- Type: functional
In this section we review reported MIC values for a set of molecules.

>>> result("CCNC(=O)Nc1nc2cc(-c3cnc(C4(O)CCCCC4)nc3)cc(-c3ccccn3)c2s1")
"> 16 µg/mL"

# input So what's the measured MIC for this one? CCNC(=O)Nc1nc2cc(-c3cnc(C(C)(C)O)nc3)cc(-c3cc(CN4CCC(F)(F)C4)ccn3)c2s1
# output > 16 µg/mL

# input So what's the measured MIC for this one? CCNC(=O)Nc1nc2cc(-c3cnc(C(C)(C)O)nc3)cc(-c3cc(CN4CC[C@@H](O)C4)ccn3)c2s1
# output 4 µg/mL

# input So what's the measured MIC for this one? CCNC(=O)Nc1nc2cc(-c3cnc(C(O)CC)nc3)cc(-c3ccccn3)c2s1 (racemic)
# output 1 µg/mL

# input So what's the measured MIC for this one? CCNC(=O)Nc1nc2cc(-c3cnc([C@@H](O)[C@H](O)C(F)(F)F)nc3)cc(-c3ccccn3)c2s1 (racemic)
# output 0.5 µg/mL

# input So what's the measured MIC for this one? CCNC(=O)Nc1nc2cc(-c3cnc([C@@H](O)[C@@H](C)O)nc3)cc(-c3ccccn3)c2s1 (racemic)
# output 1 µg/mL

====

In this section we review reported MIC values for a set of compounds.
- Test system: Streptococcus pyogenes
- Assay summary: Antimicrobial activity against Streptococcus pyogenes harboring ParE A53S mutant assessed as growth inhibition
- Assay type: functional

>>> result("CCNC(=O)Nc1nc2cc(-c3cnc(C4(O)CCNCC4)nc3)cc(-c3ccccn3)c2s1")
"> 16 µg/mL"
>>> result("CCNC(=O)Nc1nc2cc(-c3cnc(C4(O)CCCCC4)nc3)cc(-c3ccccn3)c2s1")
"> 16 µg/mL"

API: the following record is the query input.
# input So what's the measured MIC for this one? CCNC(=O)Nc1nc2cc(-c3cnc(C4(O)CNC4)nc3)cc(-c3ccccn3)c2s1
# output > 16 µg/mL

====

In this section we review reported inhibitory concentration values for a set of molecules.
- Test system: Staphylococcus aureus
- Assay summary: Inhibition of Staphylococcus aureus DNA gyrase ATPase subunit GyrA2/GyrB2 after 60 mins by malachite green staining assay
Numeric answer only, unit µg/mL assumed.

Use the examples below as a reference point.
>>> quantitative_readout("CCNC(=O)Nc1nc2cc(-c3cnc(C4(O)CCOCC4O)nc3)cc(-c3ccccn3)c2s1 (racemic)")
0.009
>>> quantitative_readout("CCNC(=O)Nc1nc2cc(-c3cnc(C(C)(C)O)nc3)cc(-c3cc(CN4CC[C@@H](OC)C4)ccn3)c2s1")
0.009
>>> quantitative_readout("CCNC(=O)Nc1nc2cc(-c3cnc(C(O)C(C)(C)C)nc3)cc(-c3ccccn3)c2s1 (racemic)")
0.012
>>> quantitative_readout("CCNC(=O)Nc1nc2cc(-c3cnc(C(O)CC)nc3)cc(-c3ccccn3)c2s1 (racemic)")
0.006
>>> quantitative_readout("CCNC(=O)Nc1nc2cc(-c3cnc(C(C)(C)O)nc3)cc(-c3cc(CN4CC[C@@H](O)C4)ccn3)c2s1")
0.007

# input So what's the measured inhibitory concentration for this one? CCNC(=O)Nc1nc2cc(-c3cnc(C(O)C4CC4)nc3)cc(-c3ccccn3)c2s1 (racemic)
# output 0.008

# input So what's the measured inhibitory concentration for this one? CCNC(=O)Nc1nc2cc(-c3cnc(C4(O)CNC4)nc3)cc(-c3ccccn3)c2s1
# output 0.029

# input So what's the measured inhibitory concentration for this one? CCNC(=O)Nc1nc2cc(-c3cnc(C4(O)CCS(=O)(=O)CC4)nc3)cc(-c3ccccn3)c2s1
# output 0.006

====

- Test system: Staphylococcus aureus
- Assay summary: Inhibition of Staphylococcus aureus DNA gyrase ATPase subunit GyrA2/GyrB2 after 60 mins by malachite green staining assay
In this section we review reported inhibitory concentration values for a set of compounds.
Numeric answer only, unit µg/mL assumed.

# input So what's the measured inhibitory concentration for this one? CCNC(=O)Nc1nc2cc(-c3cnc([C@@H](O)[C@H](O)C(F)F)nc3)cc(-c3ccccn3)c2s1 (racemic)
# output 0.004

# input So what's the measured inhibitory concentration for this one? CCNC(=O)Nc1nc2cc(-c3cnc(C(O)CO)nc3)cc(-c3ccccn3)c2s1 (racemic)
# output 0.006

====

- System: Staphylococcus aureus
- Assay summary: Inhibition of Staphylococcus aureus DNA gyrase ATPase subunit GyrA2/GyrB2 after 60 mins by malachite green staining assay
In this section we review reported inhibitory concentration values for a set of compounds.
Numeric answer only, unit µg/mL assumed.

>>> quantitative_readout("CCNC(=O)Nc1nc2cc(-c3cnc(C4(O)CCN(C)CC4)nc3)cc(-c3ccccn3)c2s1")
0.011

# input So what's the measured inhibitory concentration for this one? CCNC(=O)Nc1nc2cc(-c3cnc(C4(O)CCCC4)nc3)cc(-c3ccccn3)c2s1
# output 0.005

# input So what's the measured inhibitory concentration for this one? CCNC(=O)Nc1nc2cc(-c3cnc(C(C)(C)O)nc3)cc(-c3cc(CN4CC(O)C4)ccn3)c2s1
# output 0.004

# input So what's the measured inhibitory concentration for this one? CCNC(=O)Nc1nc2cc(-c3cnc(C4(O)CCOCC4)nc3)cc(-c3ccccn3)c2s1
# output 0.005

# input So what's the measured inhibitory concentration for this one? CCNC(=O)Nc1nc2cc(-c3cnc(C4(O)CCSCC4)nc3)cc(-c3ccccn3)c2s1
# output 0.005

# input So what's the measured inhibitory concentration for this one? CCNC(=O)Nc1nc2cc(-c3cnc([C@@H](O)[C@@H](C)O)nc3)cc(-c3ccccn3)c2s1 (racemic)
# output 0.007

# input So what's the measured inhibitory concentration for this one? CCNC(=O)Nc1nc2cc(-c3cnc(C4(O)CCNCC4)nc3)cc(-c3ccccn3)c2s1
# output 0.01

====

- Tested on: Staphylococcus aureus
- Assay summary: Inhibition of Staphylococcus aureus DNA gyrase ATPase subunit GyrA2/GyrB2 after 60 mins by malachite green staining assay
In this section we review reported inhibitory concentration values for a set of molecules.
Numeric answer only, unit µg/mL assumed.

>>> quantitative_readout("CCNC(=O)Nc1nc2cc(-c3cnc([C@@H](O)[C@@H](O)C(F)(F)F)nc3)cc(-c3ccccn3)c2s1 (racemic)")
0.004
>>> quantitative_readout("CCNC(=O)Nc1nc2cc(-c3cnc(C(C)(C)O)nc3)cc(-c3cc(CN4CC[C@@H](F)C4)ccn3)c2s1")
0.005
>>> quantitative_readout("CCNC(=O)Nc1nc2cc(-c3cnc(C(C)(C)O)nc3)cc(-c3cc(CN4CCCC4)ccn3)c2s1")
0.012

# input So what's the measured inhibitory concentration for this one? CCNC(=O)Nc1nc2cc(-c3cnc(C4(O)COC4)nc3)cc(-c3ccccn3)c2s1
# output 0.006
